TGT: N-terminal GST tagged recombinant human RET cytoplasmic domain (aa 658-end), wild type RET kinase (Homo sapiens (Human), UniProt P07949)
Sequence (P07949 658-1114): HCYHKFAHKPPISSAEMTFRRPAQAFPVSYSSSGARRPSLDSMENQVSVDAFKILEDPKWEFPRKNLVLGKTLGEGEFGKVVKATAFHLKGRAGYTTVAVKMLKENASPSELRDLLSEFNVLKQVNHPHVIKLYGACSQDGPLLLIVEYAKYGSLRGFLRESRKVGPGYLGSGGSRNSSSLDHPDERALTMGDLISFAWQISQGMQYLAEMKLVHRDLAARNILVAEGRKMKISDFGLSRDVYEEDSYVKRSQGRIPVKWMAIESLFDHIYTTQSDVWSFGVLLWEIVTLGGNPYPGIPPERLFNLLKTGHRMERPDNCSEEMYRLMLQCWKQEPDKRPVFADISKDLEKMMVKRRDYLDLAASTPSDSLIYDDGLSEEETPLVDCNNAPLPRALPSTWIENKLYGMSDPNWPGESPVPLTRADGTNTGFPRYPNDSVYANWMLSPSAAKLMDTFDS
TEST PROTOCOL: RET Enzyme Assay (HTRF KinEASE-TK), wild type RET
Format: biochemical
CONDITION LABEL: wild type RET, 1 mM ATP
PROPERTY NAME: IC50 (nM)

Example compounds with recorded IC50:
GIVEN SMILES	U	IC50
COc1ccc(CN2CCN(c3ncc(-c4cc(-c5cnn(C)c5)cn5ncc(C#N)c45)cc3F)CC2)cn1	nM	35.1
CC(C)C[C@@H](O)C(=O)N1CCN(c2ccc(-c3cc(-c4cnn(C)c4)cn4ncc(C#N)c34)cn2)CC1	nM	4.4
N#Cc1cnn2cc(-c3cnn(C(F)F)c3)cc(-c3ccc(N4CCN(Cc5ccccn5)CC4)nc3)c12	nM	5.2
Cn1cc(-c2cc(-c3ccc(N4CCN(C(=O)CCS(C)(=O)=O)CC4)nc3)c3c(C#N)cnn3c2)cn1	nM	11.9

(A) COc1cc(C)c(CN2CCN(c3ccc(-c4cc(-c5cnn(C)c5)cn5ncc(C#N)c45)cn3)CC2)cn1
(B) COc1ncccc1CN1CCN(c2ccc(-c3cc(-c4cnn(C)c4)cn4ncc(C#N)c34)cn2)CC1
Exam item: Select one. Lower IC50: A or B Give the label of your selection.
Marked response: B
(B: 10 nM, A: 19.3 nM)

----------
TGT: human KDR protein in HEK-293 cells (Homo sapiens (Human), UniProt P35968)
Sequence (P35968 20-1356): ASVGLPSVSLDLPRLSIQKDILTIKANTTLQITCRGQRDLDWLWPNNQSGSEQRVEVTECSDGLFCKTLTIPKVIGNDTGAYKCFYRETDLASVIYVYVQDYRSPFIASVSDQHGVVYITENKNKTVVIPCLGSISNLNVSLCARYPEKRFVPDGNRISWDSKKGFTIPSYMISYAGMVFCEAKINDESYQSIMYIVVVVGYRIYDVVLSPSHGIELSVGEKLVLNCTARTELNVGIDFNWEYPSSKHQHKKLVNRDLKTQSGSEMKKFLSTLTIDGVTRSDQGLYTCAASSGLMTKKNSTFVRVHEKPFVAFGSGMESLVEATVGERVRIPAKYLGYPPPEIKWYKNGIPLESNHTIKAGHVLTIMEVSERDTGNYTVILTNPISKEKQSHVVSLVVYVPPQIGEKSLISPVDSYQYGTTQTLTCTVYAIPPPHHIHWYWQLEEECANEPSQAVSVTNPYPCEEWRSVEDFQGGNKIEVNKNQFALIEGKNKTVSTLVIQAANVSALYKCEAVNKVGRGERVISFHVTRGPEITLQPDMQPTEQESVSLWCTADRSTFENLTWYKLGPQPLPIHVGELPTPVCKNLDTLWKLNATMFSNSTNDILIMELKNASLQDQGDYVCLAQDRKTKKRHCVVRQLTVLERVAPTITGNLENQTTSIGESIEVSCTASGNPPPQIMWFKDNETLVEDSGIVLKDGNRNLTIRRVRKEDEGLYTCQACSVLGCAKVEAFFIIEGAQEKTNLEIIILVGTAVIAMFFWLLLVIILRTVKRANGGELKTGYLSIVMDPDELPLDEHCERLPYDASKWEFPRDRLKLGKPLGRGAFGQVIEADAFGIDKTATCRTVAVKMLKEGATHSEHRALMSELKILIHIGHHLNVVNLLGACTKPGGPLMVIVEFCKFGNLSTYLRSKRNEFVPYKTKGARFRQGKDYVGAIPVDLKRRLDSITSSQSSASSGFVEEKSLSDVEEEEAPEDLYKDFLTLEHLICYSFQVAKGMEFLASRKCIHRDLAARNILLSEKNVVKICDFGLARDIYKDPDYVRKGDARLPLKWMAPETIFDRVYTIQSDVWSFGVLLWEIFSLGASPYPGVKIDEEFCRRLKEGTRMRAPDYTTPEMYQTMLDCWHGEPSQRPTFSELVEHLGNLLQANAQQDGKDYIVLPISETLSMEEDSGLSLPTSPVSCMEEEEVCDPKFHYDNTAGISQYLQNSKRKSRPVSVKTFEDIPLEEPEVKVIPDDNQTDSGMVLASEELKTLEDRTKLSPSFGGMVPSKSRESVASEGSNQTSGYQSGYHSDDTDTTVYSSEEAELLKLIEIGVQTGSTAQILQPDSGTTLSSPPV
TEST PROTOCOL: KDR Cell Assay (phospho-KDR in HEK-293 cells expressing inducible KDR)
Type: cell-based
CONDITION LABEL: pKDR Cell HEK 10% FBS IC50, HEK-293 cells expressing inducible KDR, VEGF stimulated, 10% FBS
Protocol: The cellular potency of a compound inhibiting KDR kinase was determined in HEK-293 cells expressing an inducible human KDR protein. […] The cells were incubated for 1 hour with test compound in DMEM at a final DMSO concentration of 0.25%. […] The lysate was stored at −80° C. until ready for assay. Phospho-KDR was measured using a phospho-KDR kit (Catalog #K151BOC) purchased from Meso Scale Diagnostics (Rockville, Md.) according to the manufacturer's instructions. […]
Where a name gives a salt, the structure may show the parent alone.
PROPERTY NAME: IC50 (nM)

Example compounds with recorded IC50:
COMPOUND	TGT	IC50 [nM]
Cn1cc(-c2cc(-c3ccc(N4CCN(C(=O)CC(C)(C)C)C5(CC5)C4)nc3)c3c(C#N)cnn3c2)cn1	human KDR protein in HEK-293 cells (Homo sapiens (Human), UniProt P35968)	1440
Cn1cc(-c2cc(-c3ccc(N4CCN(C(=O)C5(c6ccccn6)CC5)CC4)nc3)c3c(C#N)cnn3c2)cn1 [Example 359, bis(2,2,2-trifluoroacetate)]	human KDR protein in HEK-293 cells (Homo sapiens (Human), UniProt P35968)	910
CCC(=O)N1CCN(c2ccc(-c3cc(-c4cnn(C)c4)cn4ncc(C#N)c34)cn2)CC1	human KDR protein in HEK-293 cells (Homo sapiens (Human), UniProt P35968)	522
Cn1cc(-c2cc(-c3ccc(N4CCC5(CC4)CN(C(=O)OC(C)(C)C)C5)nc3)c3c(C#N)cnn3c2)cn1	human KDR protein in HEK-293 cells (Homo sapiens (Human), UniProt P35968)	597
COC(CNC(=O)C1CCN(c2ccc(-c3cc(-c4cnn(C)c4)cn4ncc(C#N)c34)cn2)CC1)C(C)C (stereo not drawn)	human KDR protein in HEK-293 cells (Homo sapiens (Human), UniProt P35968)	477
Cc1cnc(C(=O)N2CCN(c3ccc(-c4cc(-c5cnn(C)c5)cn5ncc(C#N)c45)cn3)CC2)cn1 [Example 49, trifluoroacetate]	human KDR protein in HEK-293 cells (Homo sapiens (Human), UniProt P35968)	237

(1) Cn1cc(-c2cc(-c3ccc(N4CCN(C[C@H](O)c5ccccc5)CC4)nc3)c3c(C#N)cnn3c2)cn1
(2) CC(=O)N1CC2(CCN(c3ccc(-c4cc(-c5cnn(C)c5)cn5ncc(C#N)c45)cn3)CC2)C1
(3) COCC1(C(=O)N2CCN(c3ccc(-c4cc(-c5cnn(C)c5)cn5ncc(C#N)c45)cn3)CC2)CC1
(4) Cn1cc(-c2cc(-c3ccc(N4CCNCC4)cc3)c3c(C#N)cnn3c2)cn1 [Example 291, dihydrochloride]
(5) Cn1cc(-c2cc(-c3ccc(N4CCN(C(=O)C5(c6ccc(F)cc6)CC5)CC4)nc3)c3c(C#N)cnn3c2)cn1
Exam item: Hi! Can you put these in order of IC50, lowest number first? Sort and list the labels as requested.
Marked response: 1, 5, 2, 4, 3

(a) C[C@H](C(=O)N1CCN(c2ccc(-c3cc(-c4cnn(C)c4)cn4ncc(C#N)c34)cn2)CC1)c1ccccc1
(b) Cn1cc(-c2cc(-c3ccc(N4CCN(C(=O)C(O)c5ccccc5F)CC4)nc3)c3c(C#N)cnn3c2)cn1 (stereo not drawn)
Exam item: Select one. Lower IC50: a or b Give the label of your selection.
Marked response: b
